biological target: Misshapen-like kinase 1 (MINK1) (Homo sapiens, UniProt Q8N4C8); experiment: ADP-Glo kinase assay with recombinant human MINK1, MBP substrate and ATP
Sequence (Q8N4C8 whole entry): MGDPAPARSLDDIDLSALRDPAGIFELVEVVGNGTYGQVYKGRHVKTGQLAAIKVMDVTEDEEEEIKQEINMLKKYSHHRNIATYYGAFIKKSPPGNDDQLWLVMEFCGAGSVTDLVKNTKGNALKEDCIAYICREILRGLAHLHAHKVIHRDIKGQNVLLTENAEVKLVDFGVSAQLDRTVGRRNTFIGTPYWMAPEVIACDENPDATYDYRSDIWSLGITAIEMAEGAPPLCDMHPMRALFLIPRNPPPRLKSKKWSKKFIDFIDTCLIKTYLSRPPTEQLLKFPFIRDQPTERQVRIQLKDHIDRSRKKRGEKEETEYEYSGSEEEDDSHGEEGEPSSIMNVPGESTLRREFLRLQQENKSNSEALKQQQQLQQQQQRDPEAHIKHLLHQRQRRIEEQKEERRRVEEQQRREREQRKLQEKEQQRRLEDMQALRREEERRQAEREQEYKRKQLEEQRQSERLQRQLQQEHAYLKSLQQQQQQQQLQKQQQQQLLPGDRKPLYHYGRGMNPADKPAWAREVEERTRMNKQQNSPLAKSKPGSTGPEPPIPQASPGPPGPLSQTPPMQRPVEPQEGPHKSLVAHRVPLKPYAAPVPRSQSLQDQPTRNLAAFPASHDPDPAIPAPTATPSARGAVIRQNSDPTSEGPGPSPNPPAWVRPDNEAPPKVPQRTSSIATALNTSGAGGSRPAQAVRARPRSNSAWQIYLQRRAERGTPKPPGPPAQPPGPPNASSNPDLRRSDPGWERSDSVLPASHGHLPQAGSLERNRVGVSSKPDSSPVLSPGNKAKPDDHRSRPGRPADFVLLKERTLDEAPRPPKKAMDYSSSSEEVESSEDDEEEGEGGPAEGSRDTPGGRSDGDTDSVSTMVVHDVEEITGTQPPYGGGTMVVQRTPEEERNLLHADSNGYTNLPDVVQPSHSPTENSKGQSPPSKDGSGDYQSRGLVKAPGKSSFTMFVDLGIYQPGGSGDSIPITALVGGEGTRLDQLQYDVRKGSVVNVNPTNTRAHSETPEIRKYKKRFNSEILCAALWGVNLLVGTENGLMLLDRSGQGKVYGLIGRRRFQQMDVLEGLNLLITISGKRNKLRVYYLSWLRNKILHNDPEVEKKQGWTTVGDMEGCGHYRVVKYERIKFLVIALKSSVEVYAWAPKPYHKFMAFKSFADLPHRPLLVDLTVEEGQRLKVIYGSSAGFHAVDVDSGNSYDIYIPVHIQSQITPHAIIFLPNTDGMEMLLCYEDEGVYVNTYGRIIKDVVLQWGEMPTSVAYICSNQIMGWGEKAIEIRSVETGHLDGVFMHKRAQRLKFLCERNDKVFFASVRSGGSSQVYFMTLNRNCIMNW
pIC50: −log10 of the molar value.

{"Chemical String": "Cc1ccc(-n2nc(C(C)(C)C)cc2NC(=O)NCc2cc(F)ccc2Oc2ccc3c(cnn3CCO)c2)cc1", "pIC50": 5.00}
